methodNotes: A CellTox Green Cytotoxicity Assay to monitor cytotoxicity in HepG2 cells - 32 hour (AID 1224883); also: nearly all actives have a fitted effect of over 50% in size
measurementConditions: CellTox Green fluorescence; series mostly up to 76.8 µM
Results filed as inconclusive are left out. Activity calls are given as the source filed them. Calls follow the shape of the dose curve; as a rule, active = well fitted activation curve with a large enough effect in the repeat runs; inconclusive = weak or mixed curves; inactive = flat fitted curve, though single readings scatter.
Mark one answer only. Choices: yes (1) = active, no (0) = inactive

Lookup: Status in this test for COc1cc2c(cc1OC)C(C(C(=O)N(CCc1ccc(OC)c(OC)c1OC)CCc1ccc(OC)c(OC)c1OC)c1ccccc1)=NCC2 (stereo not given) ?
Found: no (0)

Lookup: Status in this test for "O=C(OCCCCCCOC(=O)c1ccccc1)c1ccccc1" ?
Found: no (0)

Lookup: Status in this test for "CCN(CC)c1ccc(C(=C2C=CC(=[N+](CC)CC)C=C2)c2cc(S(=O)(=O)O)ccc2S(=O)(=O)[O-])cc1" ?
Found: no (0)

Lookup: Status in this test for "COc1ccc(C(=O)c2ccc(OC)cc2O)c(O)c1" ?
Found: no (0)

Lookup: Status in this test for COc1cc2nc(N3CCN(C(=O)C4COc5ccccc5O4)CC3)nc(N)c2cc1OC (stereo not given) ?
Found: yes (1)

Lookup: Status in this test for "CN(C)CCN(Cc1ccsc1)c1ccccn1" ?
Found: no (0)

Lookup: Status in this test for "Nc1ncn([C@H]2C[C@H](O)[C@@H](CO)O2)c(=O)n1" ?
Found: no (0)

Lookup: Status in this test for CC1=CCCC(C)(C)C12CCC(C)O2 (stereo not given) ?
Found: no (0)

Lookup: Status in this test for CCC(C)c1cc(C(C)(C)C)c(O)c(C(C)(C)C)c1 (stereo not given) ?
Found: no (0)

Lookup: Status in this test for "CN(C)C(=O)NC1(c2ccccc2)CCN(CC[C@@]2(c3ccc(F)c(F)c3)CN(C(=O)c3ccccc3)CCO2)CC1" ?
Found: no (0)

Lookup: Status in this test for "CCCC(=O)Nc1ccc(O)c(C(C)=O)c1" ?
Found: no (0)

Lookup: Status in this test for "CCCCCCCCCc1ccc(OCCOCCO)cc1" ?
Found: yes (1)

Lookup: Status in this test for "CCCCCCc1ccc(-c2ccc(C#N)cc2)cc1" ?
Found: no (0)

Lookup: Status in this test for "CCCCC(=O)OCC(=O)[C@H]1[C@H](C)C[C@H]2[C@@H]3C[C@H](F)C4=CC(=O)C=C[C@]4(C)[C@@]3(F)[C@@H](O)C[C@@]21C" ?
Found: no (0)

Lookup: Status in this test for O=CC1CC=CCC1 (stereo not given) ?
Found: no (0)

Lookup: Status in this test for "O=[N+]([O-])c1cccc(S(=O)(=O)O)c1" ?
Found: no (0)

Lookup: Status in this test for "C=C(C)C(=O)OCC" ?
Found: no (0)

Lookup: Status in this test for "C[Si](C)(CCCN)O[Si](C)(C)CCCN" ?
Found: no (0)

Lookup: Status in this test for "Cc1nn(C)c(Oc2ccccc2)c1/C=N/OCc1ccc(C(=O)OC(C)(C)C)cc1" ?
Found: no (0)

Lookup: Status in this test for "Nc1ccc(S(=O)(=O)Nc2ccccc2)cc1" ?
Found: no (0)

Lookup: Status in this test for CCCCC(CC)CN1C(=O)C2C3C=CC(C3)C2C1=O (stereo not given) ?
Found: no (0)

Lookup: Status in this test for CC(C)(C)OCC1CO1 (stereo not given) ?
Found: no (0)

Lookup: Status in this test for "CCN(CC)c1ccc2c(-c3ccccc3C(=O)O)c3ccc(=[N+](CC)CC)cc-3oc2c1" ?
Found: yes (1)

Lookup: Status in this test for "O=S(=O)(Oc1ccc(Cl)cc1)c1ccccc1" ?
Found: no (0)

Lookup: Status in this test for "COC(C)(C)CCO" ?
Found: no (0)
